# protein stability index values compiled below
B1: ANKRD9 (parent)
chain: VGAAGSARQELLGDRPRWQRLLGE

variants of: B1; experiment: protein stability index of a GFP-peptide fusion (GPS, HEK-293T) (PSI 1-6); higher = more stable; details: c terminus: a fixed tail appended;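 also: lentivirally expressed fusions sorted by FACS into six bins by GFP to DsRed ratio, PSI derived from sequencing read proportions per bin multiplied by bin number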
Answer as a number with no unit attached.

[
  {
    "residues": "VGAAGSARQELLGDRPRWHRLLGE [Q19H]",
    "measuredNumber": 3.14
  },
  {
    "residues": "VGAAGSARQELLQDRPRWQRLLGE [G13Q]",
    "measuredNumber": 2.76
  },
  {
    "residues": "VGAAGSARQELLGDRPRWQSLLGE [R20S]",
    "measuredNumber": 2.87
  },
  {
    "residues": "VGAAGSARQELLGERPRWQRLLGE [D14E]",
    "measuredNumber": 3.27
  },
  {
    "residues": "VGAAMSARQELLGDRPRWQRLLGE [G5M]",
    "measuredNumber": 2.37
  }
]

Exercise: Fill in: protein stability index of VGAAGSARQELLGDRYRWQRLLGE [P16Y] is ___
Key: 3.28

Exercise: Try this variant too: VGAAGSARQELLIDRPRWQRLLGE [G13I]
Key: 2.86

Exercise: Moving on to the next variant: VGAAGSARQELLGDRPRMQRLLGE [W18M]
Key: 3.57

Exercise: For VGAAGSARQELLGDRPRTQRLLGE [W18T] then?
Key: 4.63

Exercise: VGAKGSARQELLGDRPRWQRLLGE [A4K] ?
Key: 2.11

Exercise: Same question for IGAAGSARQELLGDRPRWQRLLGE [V1I] please.
Key: 2.35
